Numbers sourced from patent US20230068663A1.

Tgt: T1, LILRB2 chimeric receptor on LILRB2 reporter cells (extracellular domain of LILRB2 fused with … (UniProt Q8N423 22-460))
T1 construct: extracellular domain;domain: transmembrane/intracellular domains; associates with DAP12; also called LILRB2-expressing reporter cells
Protocol Details: flow cytometry on LILRB2 reporter cells, APC anti-human IgG
Reported Endpoint: percent of LILRB2 reporter cells labeled

B2-15 (antibody, V domains shown, also called B-15; B2-15_HC) VH: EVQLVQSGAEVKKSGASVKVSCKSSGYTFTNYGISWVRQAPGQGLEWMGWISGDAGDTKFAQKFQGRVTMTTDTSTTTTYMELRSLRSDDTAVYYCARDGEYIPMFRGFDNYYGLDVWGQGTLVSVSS VL: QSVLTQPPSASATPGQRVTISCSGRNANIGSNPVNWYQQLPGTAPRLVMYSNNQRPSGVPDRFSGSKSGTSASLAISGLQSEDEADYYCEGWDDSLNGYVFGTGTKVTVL; > 95%
B2-7 (antibody, V domains shown, also called B2-7_HC; B2-7_LC) VH: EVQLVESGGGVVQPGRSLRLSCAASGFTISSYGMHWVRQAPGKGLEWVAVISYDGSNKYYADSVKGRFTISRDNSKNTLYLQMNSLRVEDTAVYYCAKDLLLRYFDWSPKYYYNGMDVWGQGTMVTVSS VL: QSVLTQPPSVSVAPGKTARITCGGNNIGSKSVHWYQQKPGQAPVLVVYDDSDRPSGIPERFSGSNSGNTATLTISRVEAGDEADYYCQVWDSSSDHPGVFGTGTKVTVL; > 95%

Please find the next binder below.
Qu. Supply percent of LILRB2 reporter cells labeled value. Item: B2-18 (antibody, V domains shown, also called B2-18_HC; B2-18_LC) VH: QVQLVQSGAEVKKPGASVKVSCKASGYTFTRYGFSWVRQAPGQGLEWMGWISGYNGNTKYAQKFQGRVTMTTDTSTSTAYMELRSLTSNDTAVYYCARDRGSGYLEYWGPGTLVTVSS VL: DVQMTQSPSSLSASVGERVTLTCRASQGIYSSLAWYQQKPGKAPKLLLYGTSQLERGVPSRFSGSGSGTDYTLTISSLQPEDSATYYCQQHYNLPITFGQGTRLEIK
Ans. > 95%
